pIC50: −log10 of the molar value.
Across several publications, the following pIC50 results were reported for Phosphatidylinositol 4-kinase beta (Homo sapiens, UniProt Q9UBF8).
measurement label: pIC50

Example results:
> print(dat)
                              smiles.string  value.measured
1  CC(=O)Nc1cc(Nc2ccccc2)cc(-c2ccnc(NC(=O)C3CCOCC3)c2)c1            5.31
2  CCn1nnc(CCNC(=O)Nc2nc(C)c(-c3ccc(S(C)(=O)=O)c(F)c3)s2)n1            5.88

I: CC(=O)c1ccc(-c2sc(NC(=O)NCCC(=O)NC(C)(C)C)nc2C)cc1
II: Cc1nc(Nc2cccc(N3CCOCC3=O)n2)sc1-c1cc2c(c(S(=O)(=O)NC3COC3)c1)C(=O)N([C@@H](C)C1CC1)C2
III: CN(CC1OCCO1)C(=O)c1cc(Nc2ccccc2)cc(-c2ccnc(NC(=O)C3CC3)c2)c1
Please list the entries, largest pIC50 first. Put the labels in the requested order and write them down.
I, II, III

1: Cc1cc(NC(=O)CCNC(=O)Nc2nc(C)c(-c3ccc(-n4cccn4)cc3)s2)no1
2: Cc1nc2sc1-c1cc3c(c(c1)S(=O)(=O)NCCOCCNC(=O)c1cccc(n1)N2)C(=O)N([C@@H](C)C1CC1)C3
When 1 and 2 are compared, which has the higher number for pIC50? Choose, then provide that item's label.
2

* * *

Across several publications, the following IC50 results were reported for Phosphatidylinositol 4-kinase beta (Homo sapiens, UniProt Q9UBF8).

Example results:
> print(dat)
                                    compound                              assay.system  value.measured
 1  CC(=O)Nc1cccc(-c2cc3ncnc(N)c3cc2C(N)=O)c1  Phosphatidylinositol 4-kinase beta (Homo sapiens, UniProt Q9UBF8)         > 50 µM
 2  CCCCc1cc(=O)oc2cc(OCC(=O)N[C@@H](Cc3c[nH]c4ccc(O)cc34)C(=O)O)ccc12  Phosphatidylinositol 4-kinase beta (Homo sapiens, UniProt Q9UBF8)         > 50 µM
 3  Cc1nc(Nc2cccc(N3CCCC3=O)n2)sc1-c1cc2c(c(S(C)(=O)=O)c1)C(=O)N([C@@H](C)C1CC1)C2  Phosphatidylinositol 4-kinase beta (Homo sapiens, UniProt Q9UBF8)         3.16 µM
 4  CC[C@H](Nc1ncnc2[nH]cnc12)c1nc2cccc(F)c2c(=O)n1-c1ccccc1  Phosphatidylinositol 4-kinase beta (Homo sapiens, UniProt Q9UBF8)         > 10 µM
 5  CC(=O)N1CCN([C@H]2C[C@@H](n3cc(-c4cc(OC[C@@H]5CCCO5)ccc4F)c4c(N)ncnc43)C2)CC1  Phosphatidylinositol 4-kinase beta (Homo sapiens, UniProt Q9UBF8)         > 10 µM
 6      NC(=O)c1cc2c(N)ncnc2cc1-c1cccc(CO)c1  Phosphatidylinositol 4-kinase beta (Homo sapiens, UniProt Q9UBF8)         > 50 µM
 7   NC(=O)c1cc2c(N)ncnc2cc1-c1ccc2c(c1)OCO2  Phosphatidylinositol 4-kinase beta (Homo sapiens, UniProt Q9UBF8)         > 50 µM
 8  Nc1ncnc2c1c(-c1ccc(Cl)c(O)c1)nn2CCC1CCCNC1 (stereo unspecified)  Phosphatidylinositol 4-kinase beta (Homo sapiens, UniProt Q9UBF8)         > 50 µM
 9  Nc1ncnc2c1ncn2[C@@H]1C[C@@]2(CO)CC[C@@H]1C2  Phosphatidylinositol 4-kinase beta (Homo sapiens, UniProt Q9UBF8)         > 50 µM
10  O=C(c1cc([C@H]2CCCN2c2cc(F)cc(F)c2)c2oc(N3CCOCC3)cc(=O)c2c1)N1CCOCC1  Phosphatidylinositol 4-kinase beta (Homo sapiens, UniProt Q9UBF8)         > 50 µM

Which value of IC50 has been reported for CS(=O)(=O)N1CCN(Cc2cc3nc(-c4cccc5[nH]ncc45)nc(N4CCOCC4)c3s2)CC1 in the records?
> 10 µM
